Tested on: WPMY1-CANX-COX4
Assay: phenotypically active (imaging signature differs from DMSO and reproducible) at any of 0.3-9 uM (binary (1 = active, 0 = inactive)); higher = active
Settings: treatment time: 24 h
Classes used: active, inactive

[
  {
    "compound": "O=C1NC(=O)C(c2ccccc2[N+](=O)[O-])=C1Nc1ccc(O)c(Cl)c1",
    "group": "inactive"
  },
  {
    "compound": "CC(=O)NC1=NN(C(C)=O)C(C)(c2ccccc2)S1 (stereo unspecified)",
    "group": "active"
  },
  {
    "compound": "N#C/C(=C/c1ccc(-c2cc(Cl)ccc2Cl)o1)C(=O)Nc1cccc2ncccc12",
    "group": "active"
  },
  {
    "compound": "C[C@@H]1C[C@H]2[C@@H]3CCC4=CC(=O)C=C[C@]4(C)[C@@]3(Cl)[C@@H](O)C[C@]2(C)[C@@]1(OC(=O)c1ccco1)C(=O)CCl [mometasone furoate]",
    "group": "inactive"
  },
  {
    "compound": "CC(=O)Nc1ccc(NC(=S)NC(=O)c2ccc(C(C)(C)C)cc2)cc1",
    "group": "active"
  },
  {
    "compound": "C[C@H]1COCCN1c1cc(C2(S(=O)(=O)C3CC3)CC2)nc(-c2ccc(NC(=S)NCCO)cc2)n1",
    "group": "active"
  },
  {
    "compound": "COc1cc2c(cc1OCCCN1CCCC1)N=C(N)C21CCC1",
    "group": "inactive"
  },
  {
    "compound": "CC(C)(C)c1cnc(CSc2cnc(NC(=O)C3CCNCC3)s2)o1",
    "group": "active"
  },
  {
    "compound": "CC(C)c1ccc(CC(=O)N2CCC[C@@H](c3cccc(OC(C)(C)C(=O)O)c3)C2)cc1",
    "group": "inactive"
  },
  {
    "compound": "O=C(O)COc1ccc(Br)cc1/C=C1\\SC(=S)N(Cc2cccnc2)C1=O",
    "group": "inactive"
  },
  {
    "compound": "CNCC[C@H](Oc1cccc2ccccc12)c1cccs1",
    "group": "inactive"
  },
  {
    "compound": "Cc1ccc(O)c([C@H](CCN(C(C)C)C(C)C)c2ccccc2)c1 [Tolterodine L-tartrate]",
    "group": "inactive"
  },
  {
    "compound": "COc1c2occc2cc2ccc(=O)oc12",
    "group": "inactive"
  },
  {
    "compound": "COc1cc2nc(N3CCN(C(=O)C4COc5ccccc5O4)CC3)nc(N)c2cc1OC (stereo unspecified)",
    "group": "active"
  },
  {
    "compound": "Cc1ccc(C(=O)N(CCCN)[C@@H](c2oc3cc(Cl)ccc3c(=O)c2Cc2ccccc2)C(C)C)cc1",
    "group": "active"
  },
  {
    "compound": "CC(=O)O[C@H]1C(=O)[C@@]2(C)[C@H]([C@H](OC(=O)c3ccccc3)[C@]3(O)C[C@H](OC(=O)[C@H](O)[C@@H](NC(=O)c4ccccc4)c4ccccc4)C(C)=C1C3(C)C)[C@]1(OC(C)=O)CO[C@@H]1C[C@@H]2O",
    "group": "active"
  }
]
